- experimental target: Serine/threonine-protein kinase NLK (Homo sapiens)
- study conditions: at 10 µM
readout: residual activity (%)
Provide the reading as a plain figure in %.

> print(dat)
                               smiles.entry  value
1  COc1cc2ncnc(N3CCN(C(=O)Nc4ccc(Oc5ccccc5)cc4)CC3)c2cc1OC     89
2  CC(C)n1cnc2/c(=N/c3cccc(Cl)c3)nc(NCCO)[nH]c21     70
3         COc1ccc(OC)c2c(=S)c3ccccc3[nH]c12     76

Which residual activity value is on record for O=C(O)c1ccc2c3c1cccc3c(=O)n1c3ccccc3nc21 ?
72

c1ccc(-c2n[nH]cc2-c2ccnc3ccccc23)nc1 , same question.
27

Record: Cc1cncc2cccc(S(=O)(=O)N3CCCN(C(=O)CN)C[C@H]3C)c12
86

And Oc1c2ccccc2c2c3c(cccc13)N=N2 ?
71

Cool, now N#C/C(=C(\N)Sc1ccc(N)cc1)c1ccccc1C(F)(F)F
95

Request: Oc1ccc(-c2nc(-c3ccc(F)cc3)c(-c3ccncc3)[nH]2)cc1
13

Quick one: CC(C)n1cnc2c(NCc3ccccc3)nc(NCCCO)nc21
86

Try CN(C)CCCn1cc(C2=C(c3c[nH]c4ccccc34)C(=O)NC2=O)c2ccccc21 next.
88
